Target: HLA-A*03:01
Assay: IEDB peptide-MHC binding, purified MHC/direct/fluorescence; filed as Kd, often an IC50 or EC50 that approximates it; bounds were set here for any values at or beyond the usual limits of such assays
Details: source organism: Escherichia coli
Recorded endpoint: Kd

Entry SSMNSDAAY — recorded Kd = ≥ 20 µM

====

Please go through the items and note down their pKd.
Molecular target: HLA-B*27:05
Assay: IEDB peptide-MHC binding, purified MHC/direct/fluorescence; filed as Kd, often an IC50 or EC50 that approximates it; bounds were set here for any values at or beyond the usual limits of such assays
Conditions: source organism: Escherichia coli O157:H7
API: returns pKd as number; meaning -log10 of concentration in mol/L.

Entry IRNPPMVVF — recorded pKd = 5.49

Entry REWGWRIPF — recorded pKd = 6.23

====

Target: HLA-A*68:02
Test: IEDB peptide-MHC binding, purified MHC/competitive/fluorescence; filed as Kd, often an IC50 or EC50 that approximates it; bounds were set here for any values at or beyond the usual limits of such assays
Conditions: source organism: Burkholderia mallei NCTC 10229
Recorded endpoint: pKd
API: returns pKd as number; meaning -log10 of concentration in mol/L.

Response field pKd (HLA-A*68:02) for item RRSLLAHVR : 5.53

====

Target: HLA-B*07:02
Experiment: IEDB peptide-MHC binding, purified MHC/direct/fluorescence; filed as Kd, often an IC50 or EC50 that approximates it; bounds were set here for any values at or beyond the usual limits of such assays
Settings: source organism: Orthohantavirus dobravaense
Recorded endpoint: pKd
API: returns pKd as number; meaning -log10 of concentration in mol/L.

Entry LPTRCRLEI — recorded pKd = 8.41

====

Biological target: HLA-B*07:02
Assay: IEDB peptide-MHC binding, purified MHC/competitive/radioactivity; filed as Kd, often an IC50 or EC50 that approximates it; bounds were set here for any values at or beyond the usual limits of such assays
Conditions: source organism: Vaccinia virus WR
Please go through the items and note down their Kd.
# value in nM; strip the unit string

Response field Kd (HLA-B*07:02) for item LPRVVGGKTV : 0.306

Response field Kd (HLA-B*07:02) for item RPTPKKMNIV : 52.4

====

Target: HLA-B*37:01
Experiment: IEDB peptide-MHC binding, purified MHC/competitive/fluorescence; bounds were set here for any values at or beyond the usual limits of such assays
Conditions: source organism: Homo sapiens
pIC50: −log10 of the molar value.
Recorded endpoint: pIC50

Entry FPHTELANL — recorded pIC50 = ≤ 4.70

====

Biological target: HLA-B*44:03
Assay: IEDB peptide-MHC binding, purified MHC/competitive/radioactivity; filed as Kd, often an IC50 or EC50 that approximates it; bounds were set here for any values at or beyond the usual limits of such assays
Conditions: source organism: Mammarenavirus juninense
Recorded endpoint: Kd

Entry PDVLRSDVY — recorded Kd = ≥ 78.1 µM

====

Biological target: HLA-A*30:02
Experiment: IEDB peptide-MHC binding, purified MHC/competitive/radioactivity; filed as Kd, often an IC50 or EC50 that approximates it; bounds were set here for any values at or beyond the usual limits of such assays
Conditions: source organism: Mammarenavirus whitewaterense
Recorded endpoint: Kd

Entry DHHFTPQII — recorded Kd = ≥ 50.8 µM

====

Biological target: HLA-B*48:01
Assay: IEDB peptide-MHC binding, purified MHC/competitive/fluorescence; filed as Kd, often an IC50 or EC50 that approximates it; bounds were set here for any values at or beyond the usual limits of such assays
Conditions: source organism: Influenza A virus (A/X-31(H3N2))
pKd: −log10 of the molar value.
Recorded endpoint: pKd

Entry SHEGEGIPL — recorded pKd = ≤ 4.70

====

Molecular target: HLA-B*08:01
Assay: IEDB peptide-MHC binding, purified MHC/competitive/fluorescence; filed as Kd, often an IC50 or EC50 that approximates it; bounds were set here for any values at or beyond the usual limits of such assays
Conditions: source organism: Influenza A virus (A/Northern Territory/60/1968(H3N2))
pKd: −log10 of the molar value.
Recorded endpoint: pKd

Entry RLKTTENSF — recorded pKd = ≤ 4.70

====

Molecular target: HLA-A*26:01
Test: IEDB peptide-MHC binding, purified MHC/direct/fluorescence; filed as Kd, often an IC50 or EC50 that approximates it; bounds were set here for any values at or beyond the usual limits of such assays
Conditions: source organism: Vibrio cholerae
Recorded endpoint: Kd (nM)
# value in nM; strip the unit string

Entry MMFDAMGAL — recorded Kd = 1230

====

Target: HLA-B*07:02
Test: IEDB peptide-MHC binding, purified MHC/direct/fluorescence; filed as Kd, often an IC50 or EC50 that approximates it; bounds were set here for any values at or beyond the usual limits of such assays
Conditions: source organism: Escherichia coli O157:H7
Recorded endpoint: Kd

Entry REWGWRIPF — recorded Kd = ≥ 20 µM

Entry GMAEDLQSL — recorded Kd = ≥ 20 µM

====

Molecular target: HLA-A*02:19
Test: IEDB peptide-MHC binding, purified MHC/direct/fluorescence; filed as Kd, often an IC50 or EC50 that approximates it; bounds were set here for any values at or beyond the usual limits of such assays
Conditions: source organism: Vibrio vulnificus YJ016
pKd: −log10 of the molar value.
Recorded endpoint: pKd

Entry FPLWNTEKI — recorded pKd = ≤ 4.70

====

Biological target: HLA-B*18:01
Assay: IEDB peptide-MHC binding, purified MHC/competitive/fluorescence; filed as Kd, often an IC50 or EC50 that approximates it; bounds were set here for any values at or beyond the usual limits of such assays
Details: source organism: Yersinia pestis Nepal516
pKd: −log10 of the molar value.
Recorded endpoint: pKd

Entry ILHRLAPWI — recorded pKd = ≤ 4.70

Entry YADGGQWYN — recorded pKd = ≤ 4.70

====

Target: HLA-B*18:01
Assay: IEDB peptide-MHC binding, purified MHC/direct/fluorescence; filed as Kd, often an IC50 or EC50 that approximates it; bounds were set here for any values at or beyond the usual limits of such assays
Conditions: source organism: Vibrio vulnificus YJ016
Recorded endpoint: Kd

Response field Kd (HLA-B*18:01) for item FPLWNTEKI : ≥ 20 µM

====

Target: HLA-A*11:01
Assay: IEDB peptide-MHC binding, purified MHC/competitive/fluorescence; filed as Kd, often an IC50 or EC50 that approximates it; bounds were set here for any values at or beyond the usual limits of such assays
Conditions: source organism: Human immunodeficiency virus 1
pKd: −log10 of the molar value.
Recorded endpoint: pKd

Entry RSLYNTVATLY — recorded pKd = ≤ 4.70

====

Target: HLA-A*30:02
Experiment: IEDB peptide-MHC binding, purified MHC/competitive/radioactivity; filed as Kd, often an IC50 or EC50 that approximates it; bounds were set here for any values at or beyond the usual limits of such assays
Conditions: source organism: Dengue virus 3 Martinique/1243/1999
Recorded endpoint: Kd

Entry VTRGAVLTY — recorded Kd = ≥ 76.9 µM

====

Target: HLA-B*27:03
Assay: IEDB peptide-MHC binding, purified MHC/direct/fluorescence; filed as Kd, often an IC50 or EC50 that approximates it; bounds were set here for any values at or beyond the usual limits of such assays
Conditions: source organism: Bacillus anthracis str. 'Ames Ancestor'
Recorded endpoint: Kd

Entry TKAGMAQYL — recorded Kd = ≥ 20 µM

====

Biological target: HLA-B*15:17
Test: IEDB peptide-MHC binding, purified MHC/competitive/fluorescence; filed as Kd, often an IC50 or EC50 that approximates it; bounds were set here for any values at or beyond the usual limits of such assays
Details: source organism: Variola virus
Recorded endpoint: Kd (µM)
# value in µM; strip the unit string

Response field Kd (HLA-B*15:17) for item VYSFDESSF : 2.1

====

Target: HLA-A*02:03
Test: IEDB peptide-MHC binding, purified MHC/direct/fluorescence; filed as Kd, often an IC50 or EC50 that approximates it; bounds were set here for any values at or beyond the usual limits of such assays
Settings: source organism: Encephalitozoon cuniculi GB-M1
Recorded endpoint: Kd

Entry RNMSRIFPY — recorded Kd = ≥ 20 µM

====

Biological target: HLA-A*26:01
Test: IEDB peptide-MHC binding, purified MHC/direct/fluorescence; filed as Kd, often an IC50 or EC50 that approximates it; bounds were set here for any values at or beyond the usual limits of such assays
Details: source organism: SARS-CoV1
Recorded endpoint: pKd
API: returns pKd as number; meaning -log10 of concentration in mol/L.

Entry TLMNVITLV — recorded pKd = 5.95

====

Molecular target: HLA-A*69:01
Assay: IEDB peptide-MHC binding, purified MHC/direct/fluorescence; filed as Kd, often an IC50 or EC50 that approximates it; bounds were set here for any values at or beyond the usual limits of such assays
Conditions: source organism: Escherichia coli O157:H7
Recorded endpoint: Kd

Entry GMAEDLQSL — recorded Kd = 1 µM

Entry IRNPPMVVF — recorded Kd = ≥ 20 µM

Entry REWGWRIPF — recorded Kd = ≥ 20 µM
